Source: the supplement of paper PMC3974653

tested on: MTT (mouse pheochromocytoma); assay: IC50 of cell viability (ATP content); conditions: (24 or 48 h)
Measured Property: IC50 of cell viability

1. Cc1nnc(N[S+](=O)([O-])c2ccc(N)cc2)s1 :: > 46 µM
2. O=C(OCc1ccccc1)c1ccc(O)cc1 [benzyl 4-hydroxybenzoate] :: > 46 µM
3. Clc1ccc(CO/N=C(\Cn2ccnc2)c2ccc(Cl)cc2Cl)c(Cl)c1.O=[N+]([O-])O [OXICONAZOLE NITRATE] :: > 46 µM
4. CCN(CC)C(=O)[C@H]\1CN(C)[C@@H]\2CC3=C[NH]C4=C3C(=CC=C4)C2=C1 [Lysergic acid diethylamide] :: > 46 µM

* * *

Catalogue of compounds with associated IC50 of cell viability
tested on: MTT (mouse pheochromocytoma); test: IC50 of cell viability (ATP content); conditions: (24 or 48 h)
Structures can show the parent of a compound that is named as a salt.
Measured Property: IC50 of cell viability

1. c1ccc2c(c1)sc1ccccc12 [DIBENZOTHIOPHENE] :: > 46 µM
2. CCc1cc(Cl)c(OC)c(C(=O)NC[C@H]2CCCN2CC)c1O [S(-)Eticlopride hydrochloride] :: > 46 µM
3. CCC1(C)CC(=O)NC(=O)C1 [Bemegride] :: > 46 µM
4. FC(F)(F)c1cccc(C2=CCN(CCc3ccc4ccccc4c3)CC2)c1 [XALIPRODEN HYDROCHLORIDE] :: > 46 µM
5. O=C(O)c1ccccc1-c1c2ccc(=O)cc-2oc2cc(O)ccc12 [Fluorescein sodium] :: > 46 µM
6. CCC(=O)O[C@]1([C@@H](C)C[C@H]2[C@H]3C[C@@H](F)\C4=C\C(=O)\C=C/[C@@]4(C)[C@@]3(F)[C@@H](O)C[C@]12C)C(=O)SCF [Fluticasone propionate] :: > 46 µM
7. CC(C)N(CC[C@@](C(N)=O)(c1ccccc1)c1ccccn1)C(C)C [Disopyramide] :: > 46 µM
8. [Na+].CC(=O)OC\C1=C(\[N@]2[C@@H](SC1)[C@H](NC(=O)CSC3=CC=NC=C3)C2=O)C([O-])=O [Cephapirin sodium salt] :: > 46 µM
9. CC[C@@]1(O)CC2CN(CCC3=C([NH]C4=CC=CC=C34)[C@](C2)(C(=O)OC)C5=C(OC)C=C6N(C)C7[C@](O)([C@H](O)[C@]8(CC)\C=C/CN9CC[C@@]7([C@H]89)C6=C5)C(N)=O)C1 (some centres undefined) [Vindesine Sulfate Salt] :: > 46 µM
10. O=C(c1ccccc1)C(O)c1ccccc1 (centres undefined) [Benzoin] :: > 46 µM
11. O=[N+]([O-])c1cccc([S+](=O)([O-])NCCN[S+](=O)([O-])c2cccc([N+](=O)[O-])c2)c1 [Dinsed] :: > 46 µM
12. CN(C)c1cc(NC(=O)CNC(C)(C)C)c(O)c2c1C[C@H]1C[C@H]3[C@H](N(C)C)C(O)=C(C(N)=O)C(=O)[C@]3(O)C(O)=C1C2=O [Tigecycline] :: > 46 µM
13. CC(C)(C)NCC(O)c1ccccc1Cl.Cl (centres undefined) [TULOBUTEROL] :: > 46 µM
14. CCCC1=NC(=C([N]1CC2=CC=C(C=C2)C3=CC=CC=C3C4=N[NH]N=N4)C(=O)OCC/5=C(C)/OC(=O)O5)C(C)(C)O [OLMESARTAN MEDOXOMIL] :: > 46 µM

* * *

system: MTT (mouse pheochromocytoma); assay: IC50 of cell viability (ATP content); details: (24 or 48 h)
Readings of IC50 of cell viability for the listed compounds
Measured Property: IC50 of cell viability

1) CN1c2ccccc2C(NCCCCCCC(=O)[O][Na])c2ccc(Cl)cc2[S+]1(=O)[O-] (stereo not drawn) [TIANEPTINUM] :: > 46 µM
2) CC(C)(O)C(Cl)(Cl)Cl [CHLOROBUTANOL] :: > 46 µM
3) O=C(CCCN1CCC2(CC1)C(=O)NCN2c1ccccc1)c1ccc(F)cc1 [SPIPERONE] :: > 46 µM
4) Nc1ccc([S+](=O)([O-])Nc2ccc(Cl)nn2)cc1 [Sulfachloropyridazine] :: > 46 µM
5) C\C1=C(\[N@]2[C@@H](SC1)[C@H](NC(=O)[C@@H](N)C3=CC=C(O)C=C3)C2=O)C(O)=O [Cefadroxil] :: > 46 µM
6) Cc1nc(-c2ccc(Cl)cc2)oc1COC(C)(C)C(=O)O [Romazarit] :: > 46 µM
7) CC(C)OC(=O)c1cc2c(OCC(O)CNC(C)(C)C)cccc2[nH]1 (stereo not drawn) :: > 46 µM
8) CC(=O)N[C@@H](CC(=O)O)C(=O)N[C@@H](CCC(=O)O)C(=O)O [SPAGLUMIC ACID] :: > 46 µM

* * *

IC50 of cell viability values, listed per item
tested on: MTT (mouse pheochromocytoma); assay: IC50 of cell viability (ATP content); settings: (24 or 48 h)
Where a name gives a salt, the structure may show the parent alone.
Measured Property: IC50 of cell viability

1. CC(=O)[C@H]1CC[C@H]2[C@@H]3CC[C@H]4C[C@H](O)CC[C@]4(C)[C@H]3C(=O)C[C@]12C :: > 46 µM
2. O=C(c1cc2ccccc2o1)N1CCN(Cc2ccccc2)CC1 :: > 46 µM
3. CCC1(CC)C(=O)NC(=O)N(C)C1=O :: > 46 µM
4. CCCCCCC(O)C/C=C/CCCCCCCC(=O)O (configuration not stated) [POTASSIUM RICINOLEATE] :: > 46 µM
5. NC(=O)C(c1ccccc1)(c1ccccc1)[C@@H]1CCN(CCc2ccc3c(c2)CCO3)C1 [DARIFENACIN HYDROBROMIDE] :: > 46 µM
6. Cc1ccnc(N[S+](=O)([O-])c2ccc(N)cc2)n1 :: > 46 µM
7. COc1ccc(C(Cl)=C(c2ccc(OC)cc2)c2ccc(OC)cc2)cc1 :: > 46 µM

* * *

Recorded IC50 of cell viability for the following molecules
system: MTT (mouse pheochromocytoma); experiment: IC50 of cell viability (ATP content); conditions: (24 or 48 h)
Structures can show the parent of a compound that is named as a salt.
Measured Property: IC50 of cell viability

1. CCCCCCCCCCCCCCCC(=O)OCC(COC(=O)CCCCCCCCCCCCCCC)OC(=O)CCCCCCCCCCCCCCC :: > 46 µM
2. O=C(O)COc1ccccc1 :: > 46 µM
3. CN(CCOc1ccc(NS(C)(=O)=O)cc1)CCc1ccc(NS(C)(=O)=O)cc1 [Dofetilide] :: > 46 µM
4. CC1(C)C[C@@H]1C(=O)N/C(=C\CCCCSC[C@H](N)C(=O)O)C(=O)O [CILASTATIN SODIUM] :: > 46 µM
5. COc1cc(C(=O)OC(COCCC(C)C)CN2CCOCC2)cc(OC)c1OC (stereo not drawn) :: > 46 µM
6. Clc1ccc(Cn2c(CN3CCCC3)nc3ccccc32)cc1 [Clemizole hydrochloride] :: > 46 µM
7. CC(O)C(O)[C@H]1CNc2nc(N)nc(O)c2N1 (stereo partly drawn) :: > 46 µM
8. CNC(=N)NCCC[C@H](N)C(=O)O [NG-Monomethyl-L-arginine acetate] :: > 46 µM

* * *

test system: MTT (mouse pheochromocytoma); assay: IC50 of cell viability (ATP content); conditions: (24 or 48 h)
Where a name gives a salt, the structure may show the parent alone.
Measured Property: IC50 of cell viability

1. OCc1ccccc1O [SALICYL ALCOHOL] :: > 46 µM
2. CC(C)=CCC/C(C)=C\CC/C(C)=C\CC/C(C)=C\CC1=C(C)C(=O)c2ccccc2C1=O [Vitamin K2] :: > 46 µM
3. Oc1cc(O)cc(O)c1 [PHLOROGLUCINOL] :: > 46 µM
4. CC1(C)\N=C(N)/N=C(/N)N1C2=CC=C(Cl)C=C2 [Cycloguanil HCl] :: > 46 µM
5. CCN(CC)CCNC(C(=O)OCCC(C)C)c1ccccc1 (centres undefined) [ACAMYLOPHENINE HYDROCHLORIDE] :: > 46 µM
6. OCC(O)C(O)C(O)C(O)CO (centres undefined) [SORBITOL] :: > 46 µM
7. N=C(N)N1CCc2ccccc2C1 [Debrisoquin sulfate] :: > 46 µM
8. CCOC(=O)/C=C(C)/C=C/C=C(C)/C=C/c1c(C)cc(OC)c(C)c1C [ETRETINATE] :: > 46 µM
9. Cc1onc(-c2c(F)cccc2Cl)c1C(=O)NC1C(=O)N2C1SC(C)(C)C2C(=O)[O-].O.[Na+] (centres undefined) [FLUCLOXACILLIN MAGNESIUM] :: > 46 µM

* * *

tested on: MTT (mouse pheochromocytoma); experiment: efficacy (maximal response) relative to doxorubicin = -100% and DMSO = 0%; higher = less inhibition of viability; settings: (24 or 48 h)
Binary classification by efficacy, with -60% as an inclusive lower bound for yes (1); all other cases are no (0).

1) ClC(Cl)(Cl)SN1C(=O)C2C\C=C/CC2C1=O (stereo not drawn) :: no (0)
2) N#Cc1nn(-c2c(Cl)cc(C(F)(F)F)cc2Cl)c(N)c1[S+]([O-])C(F)(F)F (stereo not drawn) :: no (0)
3) CCCCc1ccc2[nH]c(NC(=O)OC)nc2c1 :: yes (1)
4) COC(=O)C12CCC(C)(C)CC1C3C(=O)\C=C4/C(C)(CCC5C(C)(C)C(=O)\C(=C/C45C)C#N)C3(C)CC2 (stereo not drawn) :: no (0)
5) Cc1cc(CC(C)CC(C)(C)C)n(O)c(=O)c1 (stereo not drawn) :: yes (1)
6) CC[P](CC)(CC)=[Au][S][C@@H]1OC(COC(C)=O)[C@@H](OC(C)=O)[C@H](OC(C)=O)C1OC(C)=O (stereo partly drawn) :: no (0)
7) OC[C@H]1O[C@@H](n2cnc3c(S)ncnc32)[C@H](O)[C@@H]1O :: no (0)
8) Cl.CC[C@@]1(O)C(=O)OCC/2=C1/C=C/3N(CC4=C3N=C5C=CC(=C(CN(C)C)C5=C4)O)C2=O [TOPOTECAN HYDROCHLORIDE] :: no (0)
9) COc1cc(NCc2ccc3nc(N)nc(N)c3c2C)cc(OC)c1OC [TRIMETREXATE GLUCURONATE] :: yes (1)
10) C[CH2][Hg][S]c1ccccc1C(=O)[O-].[Na+] :: no (0)
11) CC(=O)Nc1ccc(NC(=S)NC(=O)c2ccc(C(C)(C)C)cc2)cc1 :: yes (1)
12) NC/1=N/C(=O)N(/C=N1)[C@@H]2O[C@H](CO)[C@@H](O)[C@H]2O :: no (0)
13) CCCCCCCCCCCCCC[n+]1ccc(C)cc1 [MYRISTYL-GAMMA-PICOLINIUM CHLORIDE] :: yes (1)
14) COC(=O)[C@H]1[C@H]2C[C@@H]3c4[nH]c5ccccc5c4CCN3C[C@H]2C[C@@H](OC(=O)c2cc(OC)c(OC)c(OC)c2)[C@@H]1OC :: no (0)
15) Cc1cc(N)c2ccccc2[n+]1CCCCCCCCCC[n+]1c(C)cc(N)c2ccccc21 [Dequalinium dichloride] :: no (0)
16) CCC(C(=O)C(C)C(O)C(C)CCc1ccc(C)c(O)c1C(=O)[O-])C1OC(CC)(C2CC[C@@](O)(CC)C(C)O2)CC1C.[Na+] (stereo partly drawn) [LASALOCID SODIUM] :: yes (1)
17) O=C(Nc1ccc(Br)cc1)c1cc(Br)c(Br)s1 :: no (0)
18) [O-][n+]1ccccc1SSc1cccc[n+]1[O-] :: no (0)
19) COCC(=O)O[C@]1(CCN(C)CCCc2nc3ccccc3[nH]2)CCc2cc(F)ccc2[C@@H]1C(C)C.Cl.Cl [Mibefradil dihydrochloride] :: no (0)
20) C[C@@H]1CC[C@H]2[C@@H](C)C(=O)O[C@@H]3O[C@]4(C)CC[C@@H]1[C@@]32OO4 :: no (0)
21) CCCCCCNC(=O)N1\C=C(F)/C(=O)NC1=O :: yes (1)
22) CCCCCCCC[N+](C)(C)CCCCCCCC [Dioctyldimethylammonium chloride] :: yes (1)
23) [Hg+][c]1ccccc1 [PHENYLMERCURIC BORATE] :: no (0)
24) CCCCCCCCCCCC[n+]1ccc2ccccc2c1 [LAURYL ISOQUINOLINIUM BROMIDE] :: yes (1)
25) COCC(=O)NC1=CC(SC2=CC=CC=C2)=CC=C1\N=C(/NC(=O)OC)NC(=O)OC :: yes (1)
26) O=Cc1ccccc1C=O :: yes (1)
